Data origin, for the record: patent US12358899B2

Study Target: THRα-LBD (Homo sapiens, UniProt P10827)
Construct: purchased ThermoFisher
Sequence (P10827 163-410 isoform P10827-2 limits assumed, other chains not shown): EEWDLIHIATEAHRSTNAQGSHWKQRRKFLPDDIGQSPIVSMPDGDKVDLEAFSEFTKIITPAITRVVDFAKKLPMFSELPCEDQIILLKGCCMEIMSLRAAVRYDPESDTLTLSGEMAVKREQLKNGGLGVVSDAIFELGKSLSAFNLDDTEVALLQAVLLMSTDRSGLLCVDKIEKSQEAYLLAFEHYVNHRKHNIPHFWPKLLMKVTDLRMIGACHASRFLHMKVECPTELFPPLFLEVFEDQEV
Test: THR coactivator recruitment assay (LanthaScreen TR-FRET), THRα
Assay type: biochemical
Settings: EC50 class from TR-FRET ratio 520:495 dose response; read-out: THRα binding
Provide the reported EC50 of each item.

Query: GET EC50 where system = THRα-LBD (Homo sapiens, UniProt P10827) and item = CNc1nnc(Oc2c(Cl)cc(-n3nc(C#N)c(=O)[nH]c3=O)cc2Cl)cc1C(C)C
Response: > 10 µM

Query: GET EC50 where system = THRα-LBD (Homo sapiens, UniProt P10827) and item = CC(C)c1cc(Oc2c(Cl)cc(-n3nc(C#N)c(=O)[nH]c3=O)cc2Cl)nn2nnnc12
Response: > 10 µM

Query: GET EC50 where system = THRα-LBD (Homo sapiens, UniProt P10827) and item = CC(C)c1cc(Oc2c(Cl)cc(-n3nc(C#N)c(=O)[nH]c3=O)cc2Cl)nnc1Cl
Response: > 10 µM

Query: GET EC50 where system = THRα-LBD (Homo sapiens, UniProt P10827) and item = CC(C)c1cc(Oc2c(Cl)cc(-n3nc(C#N)c(=O)[nH]c3=O)cc2Cl)ncn1
Response: 0.1 to 1 µM

Query: GET EC50 where system = THRα-LBD (Homo sapiens, UniProt P10827) and item = Cc1cc(-n2nc(C#N)c(=O)[nH]c2=O)cc(Cl)c1Oc1n[nH]c(=O)c2c1CC[C@H]2C (single isomer, unassigned)
Response: 1 to 10 µM

Query: GET EC50 where system = THRα-LBD (Homo sapiens, UniProt P10827) and item = CC(C)n1c(=O)ccn(Cc2c(Cl)cc(-n3nc(C#N)c(=O)[nH]c3=O)cc2Cl)c1=O
Response: 1 to 10 µM

====

Provide the reported IC50 of each item.

Query: GET IC50 where system = CYP 2C19 (Homo sapiens, UniProt P33261) and item = [2H]C([2H])([2H])C(c1cc(Oc2c(Cl)cc(-n3nc(C#N)c(=O)[nH]c3=O)cc2Cl)n[nH]c1=O)C([2H])([2H])[2H]
Sequence (P33261 whole entry): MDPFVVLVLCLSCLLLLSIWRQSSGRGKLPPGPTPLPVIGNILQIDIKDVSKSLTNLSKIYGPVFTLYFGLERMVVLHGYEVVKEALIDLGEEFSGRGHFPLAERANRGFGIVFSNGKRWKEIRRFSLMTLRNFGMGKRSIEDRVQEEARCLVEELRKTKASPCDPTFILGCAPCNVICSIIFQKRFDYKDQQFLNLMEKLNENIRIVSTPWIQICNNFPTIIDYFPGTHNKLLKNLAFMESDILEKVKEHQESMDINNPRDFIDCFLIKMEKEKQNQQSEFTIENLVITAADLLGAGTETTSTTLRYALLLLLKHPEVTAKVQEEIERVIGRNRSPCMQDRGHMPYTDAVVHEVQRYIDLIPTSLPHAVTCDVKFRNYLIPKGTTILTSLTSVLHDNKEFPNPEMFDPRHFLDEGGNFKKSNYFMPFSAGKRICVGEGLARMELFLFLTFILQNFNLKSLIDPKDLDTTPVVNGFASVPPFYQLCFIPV
Response: > 50 µM

Query: GET IC50 where system = CYP 2C19 (Homo sapiens, UniProt P33261) and item = CC(C)c1cc(Oc2c(Cl)cc(-n3nc(C#N)c(=O)[nH]c3=O)cc2Cl)n[nH]c1=O [MGL-3196, reference compound]
Response: > 50 µM

====

Provide the reported THRα Bmax % (vs T3) of each item.
Study Target: THRα-LBD (Homo sapiens)
Construct: purchased ThermoFisher
Test: THR coactivator recruitment assay (LanthaScreen TR-FRET), THRα
Assay type: biochemical
Settings: maximum activity relative to the maximum activity of 500 nM T3
Please give the number followed by its unit.

Query: Let me know recorded THRα Bmax % (vs T3) for CC(C)c1cc(Oc2c(Cl)cc(-n3nc(C#N)c(=O)[nH]c3=O)cc2Cl)nnc1C#N , thanks.
Response: 3%

Query: Let me know recorded THRα Bmax % (vs T3) for COc1nnc(Oc2c(Cl)cc(-n3nc(C#N)c(=O)[nH]c3=O)cc2Cl)cc1C(C)C , thanks.
Response: 4%

Query: Let me know recorded THRα Bmax % (vs T3) for [2H]C([2H])([2H])[C@@H]1CCc2c(Oc3c(Cl)cc(-n4nc(C#N)c(=O)[nH]c4=O)cc3Cl)n[nH]c(=O)c21 (single isomer, unassigned) , thanks.
Response: 33%

Query: Let me know recorded THRα Bmax % (vs T3) for CC(C)c1cc(Oc2c(Cl)cc(-n3nc(C#N)c(=O)[nH]c3=O)cc2Cl)ncn1 , thanks.
Response: 23%

Query: Let me know recorded THRα Bmax % (vs T3) for CNc1nnc(Oc2c(Cl)cc(-n3nc(C#N)c(=O)[nH]c3=O)cc2Cl)cc1C(C)C , thanks.
Response: 2%

Query: Let me know recorded THRα Bmax % (vs T3) for CC(C)c1cc(Oc2c(Cl)cc(-n3nc(C#N)c(=O)[nH]c3=O)cc2Cl)nnc1Cl , thanks.
Response: 5%

Query: Let me know recorded THRα Bmax % (vs T3) for CC(C)n1c(=O)ccn(Cc2c(Cl)cc(-n3nc(C#N)c(=O)[nH]c3=O)cc2Cl)c1=O , thanks.
Response: 88%

Query: Let me know recorded THRα Bmax % (vs T3) for [2H]C([2H])([2H])C(c1cc(Oc2c(Cl)cc(-n3nc(C#N)c(=O)[nH]c3=O)cc2Cl)n[nH]c1=O)C([2H])([2H])[2H] , thanks.
Response: 41%

Query: Let me know recorded THRα Bmax % (vs T3) for C[C@@H]1CCc2c(Oc3c(Cl)cc(-n4nc(C#N)c(=O)[nH]c4=O)cc3Cl)n[nH]c(=O)c21 (single isomer, unassigned) , thanks.
Response: 36%

Query: Let me know recorded THRα Bmax % (vs T3) for CC(C)c1cc(Oc2c(Cl)cc(-n3nc(C#N)c(=O)[nH]c3=O)cc2Cl)n[nH]c1=O [MGL-3196, reference compound] , thanks.
Response: 49%

Query: Let me know recorded THRα Bmax % (vs T3) for [2H]C([2H])([2H])C(c1cc(Cc2c(Cl)cc(-n3nc(C#N)c(=O)[nH]c3=O)cc2Cl)n[nH]c1=O)C([2H])([2H])[2H] , thanks.
Response: 51%

Query: Let me know recorded THRα Bmax % (vs T3) for [2H]c1c(Cl)c(Oc2cc(C(C([2H])([2H])[2H])C([2H])([2H])[2H])c(=O)[nH]n2)c(Cl)c([2H])c1-n1nc(C#N)c(=O)[nH]c1=O , thanks.
Response: 34%

Query: Let me know recorded THRα Bmax % (vs T3) for [2H]c1c(C)c(Oc2cc(C(C([2H])([2H])[2H])C([2H])([2H])[2H])c(=O)[nH]n2)c(Cl)c([2H])c1-n1nc(C#N)c(=O)[nH]c1=O , thanks.
Response: 36%
